Source of measurements: patent US9840495B2

target: human vasopressin V1a receptor (Homo sapiens); experiment: Vasopressin V1a receptor binding assay (125I-AVP displacement, CHO-K1 membranes); details: selectivity quotient, human V1a vs human V1b receptor binding
Sequence (P37288 whole entry): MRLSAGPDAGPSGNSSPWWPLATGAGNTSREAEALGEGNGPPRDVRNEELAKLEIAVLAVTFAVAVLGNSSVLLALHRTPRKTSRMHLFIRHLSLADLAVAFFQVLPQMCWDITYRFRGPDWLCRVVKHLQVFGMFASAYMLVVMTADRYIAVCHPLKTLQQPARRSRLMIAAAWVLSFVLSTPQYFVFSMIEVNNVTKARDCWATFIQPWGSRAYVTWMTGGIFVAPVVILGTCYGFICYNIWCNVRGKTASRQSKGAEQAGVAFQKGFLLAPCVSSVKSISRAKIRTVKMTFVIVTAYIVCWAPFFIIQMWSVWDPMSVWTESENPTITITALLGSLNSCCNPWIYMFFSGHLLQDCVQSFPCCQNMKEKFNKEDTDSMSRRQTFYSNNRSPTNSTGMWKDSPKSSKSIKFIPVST
QUANTITY NAME: Ki(h-V1a)/Ki(h-V1b)

Sample answers from the record:
{"SMILES RECORD": "COc1ccc(S(=O)(=O)N2C(=O)[C@@](NC(=O)N3CC(N4CCC(N(C(C)C)C5COC5)CC4)C3)(c3cccnc3OC)c3cc(C#N)ccc32)c(OC)c1", "Ki(h-V1a)/Ki(h-V1b)": "+ (10-<25)"}
{"SMILES RECORD": "CCOc1ncccc1[C@]1(NC(=O)N2CC(N3CCC(N(C)C4COC4)CC3)C2)C(=O)N(S(=O)(=O)c2ccc(OC)cc2OC)c2cc(F)c(F)cc21", "Ki(h-V1a)/Ki(h-V1b)": "++ (25-75)"}
{"SMILES RECORD": "CCOc1ncccc1[C@]1(NC(=O)N2CC(N3CCC(N4CCOCC4)CC3)C2)C(=O)N(S(=O)(=O)c2ccc(OC)cn2)c2ccc(C#N)cc21", "Ki(h-V1a)/Ki(h-V1b)": "+ (10-<25)"}
{"SMILES RECORD": "CCOc1ncccc1[C@]1(NC(=O)N2CC(N3CCC(N4CCOCC4)CC3)C2)C(=O)N(S(=O)(=O)c2ccc(OC)cc2OC)c2cc(F)c(F)cc21", "Ki(h-V1a)/Ki(h-V1b)": "++ (25-75)"}
{"SMILES RECORD": "CCOc1ncccc1[C@]1(NC(=O)N2CC(N3CCC(N4CCCO4)CC3)C2)C(=O)N(S(=O)(=O)c2ccc(OC)cc2OC)c2ccc(C#N)cc21", "Ki(h-V1a)/Ki(h-V1b)": "+++ (>75)"}

Exercise: Any idea what Ki(h-V1a)/Ki(h-V1b) was measured for CCOc1ncccc1[C@]1(NC(=O)N2CC(N3CCC(N4CCC(O)CC4)CC3)C2)C(=O)N(S(=O)(=O)c2ccc(OC)cc2OC)c2ccc(C#N)cc21 ?
Key: +++ (>75)

Exercise: Any idea what Ki(h-V1a)/Ki(h-V1b) was measured for CCOc1ncccc1[C@]1(NC(=O)N2CC(N3CCC(N(C)CCOC)CC3)C2)C(=O)N(S(=O)(=O)c2ccc(OC)cc2OC)c2ccc(C#N)cc21 ?
Key: +++ (>75)

Exercise: Any idea what Ki(h-V1a)/Ki(h-V1b) was measured for COc1ccc(S(=O)(=O)N2C(=O)[C@@](NC(=O)N3CC(N4CCC(N(C)C5CCOCC5)CC4)C3)(c3cccnc3OC)c3cc(C#N)ccc32)c(OC)c1 ?
Key: + (10-<25)
